Data origin: patent US20140221287A1

test-system: T1, amylin receptor in membranes prepared from the nucleus accumbens portion of the brain (rat) (rat)
T1 construct: whole, on cells; Native tissue membranes
protocol-details: displacement of 125I-rat amylin from rat nucleus accumbens membranes
pIC50: −log10 of the molar value. No end group written: not given here.
assay-endpoint: pIC50

binder	pIC50
CNTATCATQRLANFLVHSSNNFGPILPPTK(mPEG40KD)VGSNTY-NH2 (ends and bridges not checked, also called Compound 30) [Cmpd 30, [K^31(mPEG40KD)]-Cmpd 13]	7.21
CNTATCATQRLANFLVHSSNNFGPK(Y‑shaped‑mPEG40KD)LPPTNVGSNTY-NH2 (ends and bridges not checked, also called Compound 31) [Cmpd 31, [K^26(Y-shaped-mPEG40KD)]-Cmpd 12]	6.88

a = CNTATCATQRLANFLVHSSNNFGK(mPEG40KD)ILPPTNVGSNTY-NH2 (ends and bridges not checked, also called Compound 33) [Cmpd 33, [K^25(mPEG40KD)]-Cmpd 15]
b = CNTATCATQRLANFLVHSSNNFGPIK(mPEG40KD)PPTNVGSNTY-NH2 (ends and bridges not checked, also called Compound 34) [Cmpd 34, [K^27(mPEG40KD)]-Cmpd 16]
c = CNTATCATQRLANFLVHSSK(mPEG40KD)NFGPILPPTNVGSNTY-NH2 (ends and bridges not checked, also called Compound 28) [Cmpd 28, [K^21(mPEG40KD)]-Cmpd 11]
Please put the entries in order of rising pIC50. Respond with the label ranking, as requested.
c, b, a
(c: 6.88, b: 7.29, a: 7.51)
